Exercise: for every item that follows, state its recorded Percent Effect.
- System name: Sialic acid-binding Ig-like lectin 9 (Homo sapiens)
- Test: Hs-Siglec9 ALPHAscreen SOP 20170721
- Parameters: scale not given: direction of the effect not stated beside the values
- Measurement setup: 10 µM
Numbers only, in %.

Illustrative cases are given below, each with its answer.
CCc1n[nH]c(C2CN(C(=O)c3cnns3)CCO2)n1 (stereo unspecified)	-2.18
O=C(c1ccn(-c2cccc(Cl)c2)n1)N1CCN(C2CC2)CC1	2.64
Cc1cc(CN2CCN(C(=O)NC(C)c3cccnc3)CC2)on1 (stereo unspecified)	3.25
COc1cccc(CCC(=O)N2CCCCC2Cn2cccn2)c1 (stereo unspecified)	2.3
O=C(N1CCOCC1)[C@@]12CCO[C@@H]1CCN(CCN1CCCCC1)C2	-2.46

Alright, here's another molecule for you.
Sample CCN1CCn2c(C)cnc2C12CCN(C(=O)CC(C)C)CC2 — what was its Percent Effect?
-1.92

###

- System name: AMP-activated protein kinase, AMPK (Homo sapiens) (UniProt P54646+O43741+P54619+Q9UGJ0+Q9Y478+Q13131+Q9UGI9)
- Test: AMP-dependent Kinase enzyme assay. An in vitro enzyme assay that detects ADP turnover that is directly proportional to AMPK activity. This uses naive AMPK that is activated during the assay with MK-8722
- Format: functional
- Parameters: scale not given: direction of the effect not stated beside the values
- Measurement setup: 30 µM
Property label: Percent Effect (%)
Numbers only, in %.

Illustrative cases are given below, each with its answer.
CCCc1nnsc1C(=O)NCC1CCN(S(C)(=O)=O)CC1	-9.31
CS(=O)(=O)NC[C@]12COC[C@H]1CN(C(=O)C1CCCCC1)C2	2.98
CCN(Cc1ccc2c(c1)OCO2)C(=O)c1ccc(C)[nH]c1=O	-8.05
CC(=O)Nc1nc(CN2CCCC2c2cnn(C)c2)cs1 (stereo unspecified)	-9.48
Cn1cc2c(n1)C(CNC(=O)Cc1ccsc1)OCC2 (stereo unspecified)	-2.5

Hi there! I need Percent Effect for each item below, if you can.
1. O=C(CN1CCCCC1Cn1cncn1)NCc1ccccn1 (stereo unspecified)
2. CN(C)CC(=O)N1CCOCC2(C1)CN(c1ccccc1)C(=O)CO2 (stereo unspecified)
3. CN(C(=O)c1ccccc1Cl)C1CCN(c2ccccn2)CC1
4. CCCc1nc(C)cc(N2CCC3(CCC(=O)N(CCOC)C3)CC2)n1
5. Cc1noc(C)c1CN1CC2(CCN(C(=O)c3cscn3)CC2)CC1=O
6. CC1=NN(c2ccc(C(=O)N3CCCC(n4ccnc4)C3)cc2)CC1 (stereo unspecified)

-4.5
11.2
-2.17
-6.4
0.445
-5.15

###

- System name: Tyrosyl-tRNA synthetase, putative (Trypanosoma cruzi (strain CL Brener))
- Test: Trypanosoma cruzi tyrosyl tRNA synthetase (TcYRS) _High Tyrosine SOP; further: in the data most compounds retested in dose-response had high values
- Type: functional
- Set-up: scale not given: direction of the effect not stated beside the values
- Measurement setup: 30 µM
Property label: Percent Effect (%)
Give bare numbers, in %.

OC(CN1CCN(Cc2nnc(C3CC3)o2)CC1)c1ccccc1 (stereo not drawn)	2.46
O=S(=O)(C1CC1)N1CCO[C@H]2[C@H](OCCN3CCCC3)CC[C@@H]21	5.21
c1ccc(C[C@H]2[C@H](N3CCOCC3)CCN2Cc2cccnc2)cc1	1.04
CCc1nc(NCCCOC)c2c(n1)c(C)nn2C	5.29
CC(C)c1nc(C2CCCN2CC(=O)N2CCc3ccccc32)no1 (stereo not drawn)	-3.43

Hi there! I need Percent Effect for each item below, if you can.
1. CN(C)CC(=O)N1CCOC2(CCCN(c3ncccc3F)C2)C1 (stereo not drawn)
2. CC(Cn1ccnc1)NC(=O)C1(c2ccc3c(c2)OCCO3)CCCC1 (stereo not drawn)
3. O=C1CC(c2ccc(F)c(F)c2)c2snc(C(=O)O)c2N1 (stereo not drawn)
4. CC(NC(=O)NCc1cccnc1N1CCCCC1)c1nccs1 (stereo not drawn)
5. CCn1cc2c(n1)CN(Cc1ccoc1)CC2COCC1CC1 (stereo not drawn)
6. O=C(NCc1cc[nH]n1)N1CCN(c2ccccc2Cl)CC1
7. CCOCC(O)CN1CCN(C(=O)CC(C)(C)C)CC1 (stereo not drawn)

1: 7.92; 2: 6.4; 3: 2.12; 4: 5.83; 5: 11.9; 6: 7.39; 7: 2.46

Hi there! I need Percent Effect for each item below, if you can.
1. CCCC(C)(C)NC(=O)c1ccc(CC2CC(=O)NC2=O)cc1 (stereo not drawn)
2. Cc1nc(C)n(CC2CN(Cc3cccc(C(N)=O)c3)CCO2)n1 (stereo not drawn)
3. CC(C(=O)Nc1ccc(N2CCCC2)nc1)n1cncn1 (stereo not drawn)

3.23
5.94
7.39

Hi there! I need Percent Effect for each item below, if you can.
1. CN1CCN(C(=O)c2cncc(CC3CCCN(C)C3)c2)CC1 (stereo not drawn)
2. CN(Cc1cccnc1)C1CC2(CCN(c3ccccn3)CC2)C1
3. Cc1cccc(N2CCC(NC(=O)CCCc3cccs3)CC2)n1
4. CC(C)c1nc(CN2CCN(C(C)c3nc(C4CC4)no3)CC2)no1 (stereo not drawn)
5. Cc1cc(NC(=O)N2CCN(c3nc(C)c(C)s3)CC2)no1
6. O=C1COC2(CCN(CC3CC3)CC2)CN1c1ccccc1

[1.07, 7.45, 5.38, 2.08, 5.94, 9.38]
